target: Fibroblast growth factor 10 (Homo sapiens) (UniProt O15520); experiment: FGF10 binders on small-molecule microarrays, primary screen, biochemical, small-molecule microarray, 635 nm fluorescence (AID 1102); conditions: FGF10 binding, fluorescence 635 nm, higher = more signal
Sequence (O15520 whole entry, looked up): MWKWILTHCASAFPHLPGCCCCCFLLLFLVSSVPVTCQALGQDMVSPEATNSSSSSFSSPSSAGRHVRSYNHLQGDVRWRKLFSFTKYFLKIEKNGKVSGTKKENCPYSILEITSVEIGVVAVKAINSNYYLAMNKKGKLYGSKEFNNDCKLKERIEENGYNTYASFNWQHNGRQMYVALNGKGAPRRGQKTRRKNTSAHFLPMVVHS
Rule: composite z-score under 0.6 gives NO, otherwise YES.

| Molecule | Cat |
| --- | --- |
| COc1ccc(O[C@H]2C=C[C@@H](c3ccccc3)O[C@@H]2COC(=O)CCC(C)=NOC(C)CN2CCCc3nc(C)c(C)cc32)cc1 (stereo partly specified) | YES |
| C=CC[C@@H]1C=C[C@H](ON=C(C)CCC(=O)OC[C@H]2O[C@H](c3ccccc3)C=C[C@@H]2Oc2ccc(OC)cc2)[C@@H](CO)O1 | NO |
| COc1cccc([C@H]2Oc3ccc(OC)cc3C(=NO[C@H](C)c3cn([C@H](CO)Cc4ccccc4)nn3)[C@@H]2O)c1 | NO |
| CON=C[C@@H](NS(=O)(=O)c1ccc(C)cc1)[C@H](C)C=CCC(=O)OC | NO |
| CCOC(=O)[C@H](CC(C)C)NC(=O)CCC1CC(OC(=O)NCCc2ccc(F)cc2)CC2(CCCC(COC(=O)NCCC(C)C)O2)O1 (stereo partly specified) | NO |
